# tested_on: H1047R PIK3CA enzyme (Homo sapiens, UniProt P42336, H1047R)
# Sequence (P42336 whole entry H1047R): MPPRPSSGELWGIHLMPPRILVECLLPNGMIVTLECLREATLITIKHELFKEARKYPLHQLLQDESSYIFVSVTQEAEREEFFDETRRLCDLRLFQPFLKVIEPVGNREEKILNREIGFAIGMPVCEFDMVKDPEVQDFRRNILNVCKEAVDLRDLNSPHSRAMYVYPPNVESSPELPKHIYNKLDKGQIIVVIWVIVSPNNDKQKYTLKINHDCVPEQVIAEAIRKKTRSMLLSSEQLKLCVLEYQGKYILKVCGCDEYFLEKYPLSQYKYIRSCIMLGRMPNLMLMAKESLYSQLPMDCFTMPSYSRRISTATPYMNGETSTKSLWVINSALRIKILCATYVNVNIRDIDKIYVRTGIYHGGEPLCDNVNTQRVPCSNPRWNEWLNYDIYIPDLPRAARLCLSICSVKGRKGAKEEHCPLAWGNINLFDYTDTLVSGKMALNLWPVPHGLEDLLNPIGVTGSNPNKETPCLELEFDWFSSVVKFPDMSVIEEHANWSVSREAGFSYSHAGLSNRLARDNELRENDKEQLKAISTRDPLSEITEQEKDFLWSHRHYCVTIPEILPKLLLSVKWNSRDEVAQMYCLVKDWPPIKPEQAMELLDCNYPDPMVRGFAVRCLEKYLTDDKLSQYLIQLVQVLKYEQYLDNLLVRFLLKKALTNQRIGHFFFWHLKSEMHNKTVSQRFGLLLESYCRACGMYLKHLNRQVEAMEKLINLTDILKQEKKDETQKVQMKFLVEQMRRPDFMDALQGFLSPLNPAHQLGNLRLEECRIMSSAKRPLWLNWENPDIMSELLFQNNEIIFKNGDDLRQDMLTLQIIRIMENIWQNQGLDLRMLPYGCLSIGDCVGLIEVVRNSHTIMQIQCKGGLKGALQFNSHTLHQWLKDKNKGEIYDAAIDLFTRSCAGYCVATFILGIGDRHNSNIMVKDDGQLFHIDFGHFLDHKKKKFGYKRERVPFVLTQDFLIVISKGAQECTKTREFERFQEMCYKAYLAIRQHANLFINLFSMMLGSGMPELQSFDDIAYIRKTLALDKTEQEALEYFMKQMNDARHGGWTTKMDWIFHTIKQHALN
# Sequence (P27986 whole entry partner): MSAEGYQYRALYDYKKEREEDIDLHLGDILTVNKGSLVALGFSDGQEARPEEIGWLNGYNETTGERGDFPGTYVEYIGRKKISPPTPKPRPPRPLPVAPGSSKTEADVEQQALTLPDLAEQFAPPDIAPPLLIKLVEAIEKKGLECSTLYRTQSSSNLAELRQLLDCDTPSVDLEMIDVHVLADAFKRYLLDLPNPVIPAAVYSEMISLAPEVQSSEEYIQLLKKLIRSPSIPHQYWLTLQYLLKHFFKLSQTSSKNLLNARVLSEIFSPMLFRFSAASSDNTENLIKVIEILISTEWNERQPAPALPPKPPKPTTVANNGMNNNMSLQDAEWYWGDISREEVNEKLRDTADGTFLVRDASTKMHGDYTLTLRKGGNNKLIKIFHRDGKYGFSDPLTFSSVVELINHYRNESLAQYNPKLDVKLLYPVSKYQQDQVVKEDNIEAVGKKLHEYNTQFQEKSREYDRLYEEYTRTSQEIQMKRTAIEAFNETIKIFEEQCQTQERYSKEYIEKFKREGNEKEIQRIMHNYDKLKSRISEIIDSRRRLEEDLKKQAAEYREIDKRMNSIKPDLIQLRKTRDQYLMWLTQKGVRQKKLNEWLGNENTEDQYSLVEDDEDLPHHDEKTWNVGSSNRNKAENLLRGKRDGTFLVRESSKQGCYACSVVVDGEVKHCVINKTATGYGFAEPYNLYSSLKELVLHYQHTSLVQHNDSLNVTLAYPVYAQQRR
# test_details: ADP-Glo Biochemical PIK3CA Kinase Assay
measure: IC50

In the examples that follow, each entry is paired with its recorded IC50.
compound: N#C[C@H]1C[C@H](c2cc(NC(=O)c3cc(F)cc(C(F)(F)F)c3)c3c(c2)C(=O)N[C@H]3c2cc(F)ccc2Cl)C1 (single isomer, unassigned)
IC50: ≤ 100 nM
//
compound: O=C1N[C@H](c2cc(F)ccc2Cl)c2c(NC(=O)N3C[C@@](O)(C(F)(F)F)c4cc(F)ccc43)cc(C3COC3)cc21 (single isomer, unassigned)
IC50: 1000 to 10000 nM
//
compound: O=C(Nc1cc(Br)cc2c1C(c1cc(F)ccc1Cl)NC2=O)c1cc(F)cc(S(F)(F)(F)(F)F)c1 (stereo not drawn)
IC50: ≤ 100 nM
//
compound: Cc1nn(C)cc1Nc1cc(NC(=O)c2cc(F)cc(C(F)(F)F)c2)c2c(c1)C(=O)NC2c1cc(F)ccc1Cl (stereo not drawn)
IC50: ≤ 100 nM

// input: 3 compounds below; output: IC50 for each
1. O=C1NC(c2cc(F)ccc2Cl)c2c1cc(-c1ccc3ncnn3c1)cc2S(=O)(=O)Cc1ccccc1 (stereo not drawn)
2. O=C1N[C@H](c2cc(F)ccc2Cl)c2c(NC(=O)N3C[C@H](O)c4c(F)cccc43)cccc21 (single isomer, unassigned)
3. O=C1N[C@@H](c2ccccc2Cl)c2c(NC(=O)N3C[C@](O)(C(F)(F)F)c4cc(F)ccc43)cccc21 (single isomer, unassigned)

[A]
1. 1000 to 10000 nM
2. 500 to 1000 nM
3. 10000 to 100000 nM

// input: 5 compounds below; output: IC50 for each
1. N#C[C@H]1C[C@@H](Oc2cc(NC(=O)c3cc(F)cc(C(F)(F)F)c3)c3c(c2)C(=O)N[C@@H]3c2cc(F)ccc2Cl)C1
2. O=C(Nc1cc(Br)cc2c1C(c1cc(F)ccc1Cl)NC2=O)c1cccc(SC(F)(F)F)c1 (stereo not drawn)
3. CC(C)c1cc(N)nn1C(=O)Nc1cccc2c1C(c1cc(F)ccc1Cl)NC2=O (stereo not drawn)
4. O=C1NC(c2cc(F)ccc2Cl)c2c(NC(=O)N3C[C@H](O)[C@@H](C(F)(F)F)C3)cc(-c3ccc4ncnn4c3)cc21 (single isomer, unassigned)
5. O=C1NC(c2cc(F)ccc2Cl)c2c(NC(=O)N3CC(O)(C(F)F)c4cc(F)ccc43)cccc21 (mixture of isomers)

[A]
1: 1000 to 10000 nM; 2: 1000 to 10000 nM; 3: 10000 to 100000 nM; 4: 1000 to 10000 nM; 5: ≤ 100 nM
